Just for reference, paper PMC3648489 is where these values come from.

# PROTOCOL: Empagliflozin plasma pharmacokinetics (HPLC-MS/MS) in the TQT study
# Format: in vivo, human
# DETAILS: human; empagliflozin 25 mg single oral dose; plasma; n=28; read-out: Cmax, gMean
MEASUREMENT_NAME: Cmax (nM)
// note: answer is a bare numeric in nM

Ask: Quickly give me recorded Cmax for OC[C@H]1O[C@@H](c2ccc(Cl)c(Cc3ccc(O[C@H]4CCOC4)cc3)c2)[C@H](O)[C@@H](O)[C@@H]1O
Reply: 768

* * *

# PROTOCOL: Empagliflozin plasma pharmacokinetics (HPLC-MS/MS) in the TQT study
# Assay type: in vivo, human
# DETAILS: human; empagliflozin 200 mg single oral dose; plasma; n=30; read-out: AUC0−tz, gMean
# Method: Blood samples for pharmacokinetic measurements were taken one hour before drug administration and at the same post-dose time points as ECG measurements, except for the moxifloxacin periods. Empagliflozin concentrations in plasma were determined using a validated high performance liquid chromatography, tandem mass spectrometry (HPLC-MS/MS) assay with a lower limit of quantification of 1.11 nmol/L (0.5 ng/mL). […]
MEASUREMENT_NAME: AUC(0-t)

Ask: Quickly give me recorded AUC(0-t) for OC[C@H]1O[C@@H](c2ccc(Cl)c(Cc3ccc(O[C@H]4CCOC4)cc3)c2)[C@H](O)[C@@H](O)[C@@H]1O
Reply: 36.4 µM·h
